system: PXR:RXRa (NR concentration 270 nM, RXRa partner concentration 90 nM); assay: PBM binding z-score (relative to random genomic background probes); higher = stronger binding; sequences stand for … in GC…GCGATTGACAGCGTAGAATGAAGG
Measured PBM binding z-score of individual entries

sequence data | tested target | PBM binding z-score
TCATATAGGTAAATGCTAGGTGAAAGTCCGATCT | PXR:RXRa (NR concentration 270 nM, RXRa partner concentration 90 nM) | 0.713
TCTTGTAGATCAAGCAGCTTAAGAAAGCCTGAGT | PXR:RXRa (NR concentration 270 nM, RXRa partner concentration 90 nM) | -0.0224
TCGAGTAGATTAGTCGGGGCATTCAGCCAACATA | PXR:RXRa (NR concentration 270 nM, RXRa partner concentration 90 nM) | -0.262
GCGACTGGGGCATCAGCATGTTACCATAACTTAA | PXR:RXRa (NR concentration 270 nM, RXRa partner concentration 90 nM) | -0.238
ATATGTAGGTTACATCCGGGACATTCAGGCTATG | PXR:RXRa (NR concentration 270 nM, RXRa partner concentration 90 nM) | 0.599
TCGAGTAGGTTAGGGGCATTCTGAATGGCGTCGA | PXR:RXRa (NR concentration 270 nM, RXRa partner concentration 90 nM) | 0.244
CCTACTGGGCCACGAAACGTCATTGATTCAGTGA | PXR:RXRa (NR concentration 270 nM, RXRa partner concentration 90 nM) | -0.903
ACTATTAGTTGACTTAGGGCAACCCATACGACGC | PXR:RXRa (NR concentration 270 nM, RXRa partner concentration 90 nM) | 0.18
CCTAGTTGGTCGAGGTCACACACGCTATAGGTAC | PXR:RXRa (NR concentration 270 nM, RXRa partner concentration 90 nM) | 5.08
AGAATGAGGTTACGAAAGATCAGGGAAACGCTTG | PXR:RXRa (NR concentration 270 nM, RXRa partner concentration 90 nM) | 1.44
TCATATAGGTAATACAGGAGAAAGTCGGCATCTA | PXR:RXRa (NR concentration 270 nM, RXRa partner concentration 90 nM) | 0.627
TCTGCTAGGTCAGTTGGACAGCTAACGAGCTGCC | PXR:RXRa (NR concentration 270 nM, RXRa partner concentration 90 nM) | -0.183
CGTCCCAGGTCAATGCTAGGTCAGTGAAAGCATT | PXR:RXRa (NR concentration 270 nM, RXRa partner concentration 90 nM) | 3.21
AGAATGAGGTTACCAAAGATCTGGGAAACGCTTG | PXR:RXRa (NR concentration 270 nM, RXRa partner concentration 90 nM) | 0.907

---

system: RARb:RXRa (NR concentration 270 nM, RXRa partner concentration 90 nM); experiment: PBM binding z-score (relative to random genomic background probes); higher = stronger binding; sequences stand for … in GC…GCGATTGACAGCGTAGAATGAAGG
Measured PBM binding z-score of individual entries
measured parameter: PBM binding z-score

sequence data | reading
ATCTCTAGGTAAAGAAAGTTCAGTGAATGCAAAT | 1.82
CCGACTGGGGCAACGTTACCATAACGCACAGCCA | 0.224
ATATGTAGGTTACATCTGGGTCATTCAGGCTATG | 2.18
CAAACTACGTCACAGAGGTCAAAGTCCGTGCGTA | 3.98
ACAGACAGGTGAGTGAAGGTAACTCCGCTGGACG | 0.621
TCTAGTTAGTCAAAGGTCACACACTCGAAATGCG | 4.74
CCTAGCAGGCCAGGGTCACTCGAGCATTTCGCTT | 2.57
AGTCAAAGTTCATCTAGGTACCGTAAGATATGCT | 4.81
ACTAGCTGGCCAAGGGTCACTCAAGATTAGTCCG | 3.34
ATCTCTAGGTAAATATAGTTCAGTGAATGCAAAT | 0.851
CCTACTGGGACAAAAAGGTCATTGATGCCGATAA | 3.94
TGTCAAAGTTCAACGGTAACGTAAGTATCCACAC | 5.03
GCAGACAGGTGAAACGCACGTAACTCAGGGTGGC | 0.539
GTACCAAGGTGAATAGGTCCTTGATGAGTAGGCG | 1.23
CGTCAAAGTTCAAGGTAACGTAACAGAAAGCAGC | 5.17
TCTGATAGGTCAGTTGGTCAGCTAACGAGCTGCC | 3.63
AGAACGAGCGCAATGAGTTGATAGCACGGGTGGC | -0.312
GCTGTTAGTTGAAAGGGCAACCGAATGATTCTCG | 2.08
GCTTACGTGTCAAAGGTTATAGCATGAATAGAAT | 2.14
ACTAGCAGGCCAATTTTGGGTCACTCAAACAAAG | 1.45
ATCTCTAGGTAAAGACAGTTCAGTGAATGCAAAT | 0.625
CAAACTAGGTCGCGAAAGGTCAAAGTCGAATGAC | 5.01

---

tested on: PPARg:RXRa 30nM:10nM, anti-RXR (NR concentration 30 nM, RXRa partner concentration 10 nM); experiment: PBM binding z-score (relative to random genomic background probes); higher = stronger binding; sequences stand for … in GC…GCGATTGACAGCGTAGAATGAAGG

sequence data | PBM binding z-score
CCTAGTTGGTAAGGAGGTCACACACCGGATATGA | 1.34
ACTAGCAGGCCAAGTTTGGGTCACTCAGACAAAG | -0.237
GATACAGGGTCAAGGCCAGAGTCCGCGTATTGAT | 1.52

---

test system: LXRb:RXRa (NR concentration 270 nM, RXRa partner concentration 90 nM); assay: PBM binding z-score (relative to random genomic background probes); higher = stronger binding; sequences stand for … in GC…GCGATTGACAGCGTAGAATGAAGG
Lab note: compare PBM binding z-score against 2. Equal or greater, write YES. Smaller, write NO.

sequence data | assigned class
GCTGTTAGGTCAACTGATGGTCAGCTAAAGCTCG | YES
CCAGACAGGTGAAAGGGAACTCAGTCTGGTACGC | NO
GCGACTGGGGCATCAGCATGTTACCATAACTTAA | NO
GCGACTGGGGCATCAGCAGGTTCCCATAACTTAA | NO
CGTCCAAGATCAAAGGTCAGTGAAGAGATGACGG | YES
ATCTCTAGGTAAGACTCGGTTCAGTGAAGAACGC | NO
ATCTCTAGGTAACAAGTTCAGGGAAAGAGAGGAC | NO
ATACCAAGGTGATCGAGAGGTCGTTGATACTAAC | NO
AGAACGAGGGCACTGAGTTGATAGCACGGGTGGC | NO
TCATATAAGTAAAAGGTGAAAGTCGGTGTGGTAA | NO
TCTAGCAGCCCAGAGGGTCACTCAAGAGGTACGG | NO
TCCAGCAGGCCAGAGGGTCACTCAAGAGGTACGG | NO
ATATGTAGGTAAGCTGGGGTCATTCAGACTAGGC | YES
GCGACTGGGGCCTCAGCAGGTTACCATAACTTAA | NO
CTCGAAAGGTCGGTTAAGGTGAGTATACGGATAA | NO
AAGACAGGGTCACTAGGCCAGAGTAGGTACGAAT | YES
TTACCAAGGGGAAGGTCGTTGATCCCTCTGTAGA | NO
CCTATTAGTTGACCCTAAGGGCAACCGAAGCTCG | YES
CGTCCAAGGTCATAGGAGGTCGGTGAAGACAGAT | YES
AATCCAGGGTCATCGTAGGCCAGAGTACGCACAG | YES
ACAACGAGGGCACGCTGAGTTGATAGCAGAGTAG | NO
ATATGTAGGTTAGCTGGGGTCATTGAGACTAGGC | YES
TGAATGAAGTTATAAGATCAGGGAACGTTGCAAA | NO
CCTGCTAGGTCAATGGTCAGCTGAAGCAGCTCGC | NO
CCTGCTAGGGCAATGGTCAGCTAAAGCAGCTCGC | NO
CCTCGGAGGACAACAGGAGGTCAGAGCAGCCAGA | NO
ATCTCTAGGTAACAAGTTCAGTGCAAGAGAGGAC | NO
TAGCCTAGGTCATGCGGGCCACTATAGTGTCGGC | NO
CGAACTAGGTCATGGACAGTGAATCTCCGCACGC | NO
CCGAATGGGGCAAAGGTTACCATACTCAGTACGA | YES
CCTAGCAGGCCAATCTGGGTCACTCAAGGCTTGA | NO
TATACAGGGTCAAAGGCCAGAGCACGAATGTCGA | YES
ATCGAAAGGTCGGGAGGTGAGTATACAGAAAGGC | YES
CATACAGGGTCAGTTAGGCCAGAGTAGGGACGGC | NO
CAAACTAGGTCAAGAGGGCAAAGTCCGCTTCCCG | YES
TATACAGGGTCAAACGCCAGAGTACGAATGTCGA | YES
CCGACTGGGGCATAAGCTTACCATAAGCCAGCCC | NO
CCTACTAGGCCAAGGTCATTGATCAGTCAAAGCA | YES
